target desc: T1, MHC class I allele A*0301 monomer (human, biotinylated, bound to streptavidin-coated plate)
T1 construct: also called A3; HLA-A3
test summary: iTopia, multiparametric iScore
measured quantity: iScore
Provide a numeric answer; units are not to be included.

Example binders with recorded iScore:
MVTWLKETE [5T4 9-mer peptide 153]: 0
LLVLYLNRK [5T4 9-mer peptide 186]: 0.372
HLESLHLED (also called HLESLHLED) [5T4 9-mer peptide 130]: 0
TLAELQGLP [5T4 9-mer peptide 139]: 0
LTCAYPEKM [5T4 9-mer peptide 161]: 0

Now look at this entry.
Lookup: Query (binder): LHNGTLAEL [5T4 9-mer peptide 137] ; field requested: iScore
Found: 0
